B1: 2K2A (parent)
chain: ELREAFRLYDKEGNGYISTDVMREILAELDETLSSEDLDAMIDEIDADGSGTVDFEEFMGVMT

- Variants of: B1
- method: folding stability dG (cDNA display proteolysis); higher = more stable
- setup-conditions: PBS, room temperature
Listed here: items and their measured folding stability dG.
# output: bare number, implied unit kcal/mol

Consider the worked cases shown below.
>>> assay_result("E12D")
1.85
>>> assay_result("F55P")
-0.144
>>> assay_result("E36D")
1.89

# lookup: folding stability dG of T63R
1.94

# lookup: folding stability dG of E28G
2.28
